The reported numbers originate from PubChem BioAssay.

Molecular target: Nuclear receptor coactivator 3 (Homo sapiens) (UniProt Q9Y6Q9)
Sequence (Q9Y6Q9 whole entry, looked up): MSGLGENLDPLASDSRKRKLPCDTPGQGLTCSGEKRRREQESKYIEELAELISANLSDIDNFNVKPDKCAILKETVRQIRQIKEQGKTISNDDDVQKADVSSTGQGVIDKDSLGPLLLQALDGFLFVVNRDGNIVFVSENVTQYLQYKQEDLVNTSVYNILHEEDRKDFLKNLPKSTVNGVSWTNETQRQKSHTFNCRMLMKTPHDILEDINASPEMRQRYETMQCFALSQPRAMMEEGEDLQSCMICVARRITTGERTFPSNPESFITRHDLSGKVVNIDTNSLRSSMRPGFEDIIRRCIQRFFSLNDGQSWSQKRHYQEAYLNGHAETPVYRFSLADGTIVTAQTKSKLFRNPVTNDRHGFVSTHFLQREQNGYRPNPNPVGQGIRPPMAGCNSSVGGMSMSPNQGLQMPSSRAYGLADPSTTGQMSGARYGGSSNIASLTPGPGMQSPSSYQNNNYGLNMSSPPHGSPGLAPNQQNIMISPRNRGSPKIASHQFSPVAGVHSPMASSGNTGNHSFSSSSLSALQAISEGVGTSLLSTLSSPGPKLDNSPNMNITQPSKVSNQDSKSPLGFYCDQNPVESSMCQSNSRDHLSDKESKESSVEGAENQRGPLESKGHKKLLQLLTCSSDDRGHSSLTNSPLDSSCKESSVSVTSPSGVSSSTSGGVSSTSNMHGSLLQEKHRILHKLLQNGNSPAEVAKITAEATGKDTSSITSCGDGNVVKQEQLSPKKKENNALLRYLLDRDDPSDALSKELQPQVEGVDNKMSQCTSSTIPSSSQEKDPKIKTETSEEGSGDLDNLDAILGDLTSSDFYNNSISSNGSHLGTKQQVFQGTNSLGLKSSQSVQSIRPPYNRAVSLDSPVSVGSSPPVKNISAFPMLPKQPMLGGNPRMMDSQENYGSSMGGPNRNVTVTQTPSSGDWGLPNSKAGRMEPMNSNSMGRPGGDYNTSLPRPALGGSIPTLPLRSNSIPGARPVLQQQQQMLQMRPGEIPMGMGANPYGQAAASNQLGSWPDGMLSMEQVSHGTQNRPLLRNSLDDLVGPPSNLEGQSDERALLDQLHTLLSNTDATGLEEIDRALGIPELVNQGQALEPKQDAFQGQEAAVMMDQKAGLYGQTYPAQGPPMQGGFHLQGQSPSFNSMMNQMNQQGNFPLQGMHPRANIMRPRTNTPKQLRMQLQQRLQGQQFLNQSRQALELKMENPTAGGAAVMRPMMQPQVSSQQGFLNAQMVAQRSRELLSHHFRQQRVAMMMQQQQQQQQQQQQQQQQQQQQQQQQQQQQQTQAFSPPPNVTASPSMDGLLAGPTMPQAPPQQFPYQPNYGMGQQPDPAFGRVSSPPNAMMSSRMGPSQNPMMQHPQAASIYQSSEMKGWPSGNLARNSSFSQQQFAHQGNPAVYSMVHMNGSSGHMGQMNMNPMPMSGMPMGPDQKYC
Assay: SRC3 coactivator transcriptional activity inhibitors, confirmation, cell-based, luminescence, quadruplicate (AID 588792)
Conditions: HEK293 GAL4-SRC3 luciferase reporter, at 3.6 µM
Active and inactive are the calls of the source.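 Rule for the calls: active = mean inhibition over 43.08%, the solvent-only control mean plus 3 SD; inactive = the rest.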
Possible outcomes: active, inactive

* CC(C)(C)c1ccc(C(=O)Nc2sc3c(c2C(=O)O)CCC3)cc1 | active
* COc1ccc(NC(=O)c2sc(=O)n(Cc3ccc(F)c(Cl)c3)c2C)cc1OC | inactive
* Cc1ccc(C(=O)N/N=C/c2c(O)ccc3ccccc23)cn1 | active
* CNc1ccc2ncc(-c3ccc(OC)c(OC)c3)n2n1 | active
* C=CS(=O)(=O)N(Cc1ccccc1Br)[C@H](CO)Cc1ccccc1 | inactive
* COc1cc(NC(=O)C2CCN(S(=O)(=O)c3ccc(N4CCCC4=O)cc3)CC2)cc(OC)c1 | inactive
* C=C(C(=O)c1ccccc1)C(NC(C)(C)C)c1ccccc1 (stereo not drawn) | active
* CCN(CC)CCCNc1nc2cc(OC)c(OC)cc2c2nc(-c3cccnc3)nn12 | inactive
